Value source: patent US20150368338A1

# assayed_system: T1, IFN-αC (human, UniProt P01566 24-189)
# T1 construct: also called IFN-α10; alpha C
# test_details: ProteOn, one antigen concentration
property_label: pKd
// scale note: pKd = -log10(conc_M); give the bare number

IFWM3314 (antibody, V domains shown, VH IFWH591, VL IFWL1014; converted mAb; also called IFWB3049) VH: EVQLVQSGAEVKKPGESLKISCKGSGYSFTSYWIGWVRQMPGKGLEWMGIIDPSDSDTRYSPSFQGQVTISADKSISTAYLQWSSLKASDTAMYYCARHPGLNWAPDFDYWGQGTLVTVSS VL: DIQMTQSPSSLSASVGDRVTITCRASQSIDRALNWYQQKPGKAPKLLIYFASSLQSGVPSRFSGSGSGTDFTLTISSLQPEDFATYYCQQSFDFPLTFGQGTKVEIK = 10.59
IFWM3328 (antibody, V domains shown, VH IFWH591, VL IFWL1064; converted mAb; also called IFWB3063) VH: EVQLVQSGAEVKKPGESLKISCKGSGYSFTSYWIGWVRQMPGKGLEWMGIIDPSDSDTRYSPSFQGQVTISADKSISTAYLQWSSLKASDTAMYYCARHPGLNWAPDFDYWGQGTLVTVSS VL: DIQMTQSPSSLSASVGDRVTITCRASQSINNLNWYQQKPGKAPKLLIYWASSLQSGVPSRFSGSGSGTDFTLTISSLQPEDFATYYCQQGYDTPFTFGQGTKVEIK = 10.00
IFWM3364 (antibody, V domains shown, VH IFWH624, VL IFWL1060; converted mAb; also called IFWB3099) VH: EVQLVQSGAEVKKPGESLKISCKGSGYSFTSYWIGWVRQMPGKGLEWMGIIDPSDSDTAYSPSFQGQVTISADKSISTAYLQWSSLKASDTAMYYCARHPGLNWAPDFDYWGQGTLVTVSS VL: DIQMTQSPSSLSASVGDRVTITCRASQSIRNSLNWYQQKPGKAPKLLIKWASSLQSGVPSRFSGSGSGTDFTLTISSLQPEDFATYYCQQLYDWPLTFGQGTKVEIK = 10.03
IFWM3291 (antibody, V domains shown, VH IFWH591, VL IFWL999; converted mAb; also called IFWB3026) VH: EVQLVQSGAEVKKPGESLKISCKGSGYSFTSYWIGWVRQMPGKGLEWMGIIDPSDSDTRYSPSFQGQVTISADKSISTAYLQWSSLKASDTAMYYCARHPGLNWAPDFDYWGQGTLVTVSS VL: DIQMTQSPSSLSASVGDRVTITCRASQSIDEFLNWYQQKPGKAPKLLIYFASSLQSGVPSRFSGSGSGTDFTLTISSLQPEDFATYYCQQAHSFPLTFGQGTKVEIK = 10.35
IFWM3320 (antibody, V domains shown, VH IFWH591, VL IFWL1047; converted mAb; also called IFWB3055) VH: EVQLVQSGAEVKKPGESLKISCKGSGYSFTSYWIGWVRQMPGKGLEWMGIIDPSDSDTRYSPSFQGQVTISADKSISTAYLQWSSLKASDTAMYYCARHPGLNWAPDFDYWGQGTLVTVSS VL: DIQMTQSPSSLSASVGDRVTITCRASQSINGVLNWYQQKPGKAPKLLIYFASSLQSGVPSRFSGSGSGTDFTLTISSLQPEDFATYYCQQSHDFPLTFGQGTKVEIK = 10.70

Q: Consider the binder IFWM3327 (antibody, V domains shown, VH IFWH591, VL IFWL1063; converted mAb; also called IFWB3062) VH: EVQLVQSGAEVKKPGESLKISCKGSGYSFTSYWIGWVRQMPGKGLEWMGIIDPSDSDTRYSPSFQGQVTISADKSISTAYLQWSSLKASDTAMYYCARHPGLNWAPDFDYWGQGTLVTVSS VL: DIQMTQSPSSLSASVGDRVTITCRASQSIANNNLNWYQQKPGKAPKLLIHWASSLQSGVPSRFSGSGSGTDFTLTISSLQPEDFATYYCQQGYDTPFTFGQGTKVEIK and give its measured pKd.
Result: 10.47

Q: Request the reported pKd associated with IFWM3332 (antibody, V domains shown, VH IFWH591, VL IFWL1074; converted mAb; also called IFWB3067) VH: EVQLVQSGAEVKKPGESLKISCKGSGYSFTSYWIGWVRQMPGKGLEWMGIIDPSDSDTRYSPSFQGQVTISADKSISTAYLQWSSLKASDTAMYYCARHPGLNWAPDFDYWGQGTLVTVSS VL: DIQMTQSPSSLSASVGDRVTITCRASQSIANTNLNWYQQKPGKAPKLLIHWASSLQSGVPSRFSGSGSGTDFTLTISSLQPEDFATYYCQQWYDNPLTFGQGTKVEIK
Result: 10.51

Q: Field request: pKd | item: IFWM3325 (antibody, V domains shown, VH IFWH591, VL IFWL1060; converted mAb; also called IFWB3060) VH: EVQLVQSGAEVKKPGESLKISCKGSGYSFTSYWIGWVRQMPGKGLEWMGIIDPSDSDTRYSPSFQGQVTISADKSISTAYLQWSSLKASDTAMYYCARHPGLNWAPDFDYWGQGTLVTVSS VL: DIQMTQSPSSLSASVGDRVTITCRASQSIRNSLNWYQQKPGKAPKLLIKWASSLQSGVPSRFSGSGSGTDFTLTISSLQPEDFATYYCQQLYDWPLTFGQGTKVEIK
Result: 10.66

Q: // lookup pKd for IFWM3308 (antibody, V domains shown, VH IFWH591, VL IFWL1004; converted mAb; also called IFWB3043) VH: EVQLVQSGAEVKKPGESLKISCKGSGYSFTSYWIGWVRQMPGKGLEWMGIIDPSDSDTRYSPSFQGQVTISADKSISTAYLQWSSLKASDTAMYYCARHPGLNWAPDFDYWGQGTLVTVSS VL: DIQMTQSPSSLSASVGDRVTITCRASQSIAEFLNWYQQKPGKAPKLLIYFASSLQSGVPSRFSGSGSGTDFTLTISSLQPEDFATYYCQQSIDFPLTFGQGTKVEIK
Result: 10.28

Q: Sample IFWM3346 (antibody, V domains shown, VH IFWH624, VL IFWL1001; converted mAb; also called IFWB3081) VH: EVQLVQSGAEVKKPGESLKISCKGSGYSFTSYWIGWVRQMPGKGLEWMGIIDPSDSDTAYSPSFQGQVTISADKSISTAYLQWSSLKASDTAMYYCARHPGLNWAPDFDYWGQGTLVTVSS VL: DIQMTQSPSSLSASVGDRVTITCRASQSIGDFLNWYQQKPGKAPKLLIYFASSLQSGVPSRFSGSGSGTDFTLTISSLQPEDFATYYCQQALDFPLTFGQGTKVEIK — what was its pKd?
Result: 9.98
